assay: Hemolysis assay
Assay type: cell-based
Residues, ends and D or L forms follow the SMILES beside them.
quantity: HC50

q: What measured HC50 goes with CCCCCCCCCCCCCCCC(=O)NCC(=O)N[C@@H](CCCNC(=N)N)C(=O)N[C@@H](CCCNC(=N)N)C(=O)NCC(=O)N[C@@H](CO)C(=O)NCC(=O)N[C@@H](CC(C)C)C(=O)NCC(=O)N[C@@H](CCCNC(=N)N)C(=O)N[C@@H](CO)C(=O)N[C@@H](CO)C(=O)N[C@@H](CO)C(=O)N[C@@H](CCCNC(=N)N)C(=O)O [Pal-HR 1-18 3H3R-GR13] (HELM PEPTIDE1{[CCCCCCCCCCCCCCCC(=O)[*:2]].G.R.R.G.S.G.L.G.R.S.S.S.R}$$$$V2.0) ?
a: > 300 µg/mL
